- protocol.summary: self-splicing fitness, log relative to wild type (ln ratio); higher = more splicing; Tetrahymena group I intron in knt gene, E. coli kanamycin selection, DiMSum; sequences stand for … in CUCUCU…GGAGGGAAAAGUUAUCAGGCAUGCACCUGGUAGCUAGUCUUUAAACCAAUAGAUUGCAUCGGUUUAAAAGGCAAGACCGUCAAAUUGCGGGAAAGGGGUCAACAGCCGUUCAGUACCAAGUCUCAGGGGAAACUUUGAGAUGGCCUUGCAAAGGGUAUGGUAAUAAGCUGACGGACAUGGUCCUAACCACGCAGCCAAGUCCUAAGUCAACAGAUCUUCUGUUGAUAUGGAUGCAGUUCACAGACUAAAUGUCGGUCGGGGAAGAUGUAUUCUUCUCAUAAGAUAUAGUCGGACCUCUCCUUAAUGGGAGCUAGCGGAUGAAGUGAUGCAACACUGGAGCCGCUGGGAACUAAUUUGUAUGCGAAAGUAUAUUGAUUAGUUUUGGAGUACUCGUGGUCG;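 note: selection with 25 µg/mL kanamycin versus none on LB agar overnight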
- assay.conditions: 30 °C
Each entry belongs to exactly one class, chosen by where its self-splicing fitness (ln) falls: low interval = under -3, middle interval = from -3 up to -2, high interval = -2 and over

chain	cat
AAUAAGCAAUAUUACGAAUA	high interval
CACUAGCAAUAUUACGAGAC	low interval
CGUUAGCAAUAUUACGGACU	high interval
ACGAAGCAAUAUUACGCUCA	high interval
AUCUAGCAAUAUUACGCUCA	high interval
AAGGAGCAAUAUUACGUCCA	high interval
GGUUAGCAAUAUUACGGCUU	high interval
ACCGAGCAAUAUUACGUUGU	low interval
AACAAGCAAUAUUACGUCCA	high interval
GACAAGCAAUAUUACGCUCG	high interval
UACCAGCAAUAUUACGCCUA	high interval
AUACAGCAAUAUUACGAGCG	high interval
AGGUAGCAAUAUUACGAUAC	middle interval
UGGAAGCAAUAUUACGAUAG	middle interval
ACAGAGCAAUAUUACGAAUA	low interval
CUACAGCAAUAUUACGCAGU	low interval
CCAUAGCAAUAUUACGUUUU	low interval
UAUUAGCAAUAUUACGUCAG	high interval
UUGGAGCAAUAUUACGAAGU	low interval
UCCGAGCAAUAUUACGGAGA	high interval
UAGAAGCAAUAUUACGACCG	high interval
UGGAAGCAAUAUUACGCUGU	middle interval
CGAAAGCAAUAUUACGCGCC	high interval
AGGGAGCAAUAUUACGAACG	middle interval
AGAAAGCAAUAUUACGAGAG	low interval
CUUUAGCAAUAUUACGUUAG	middle interval
CCUAAGCAAUAUUACGUGUA	low interval
UUGGAGCAAUAUUACGAUGU	high interval
CUUUAGCAAUAUUACGGAGA	middle interval
CUGCAGCAAUAUUACGUUAU	low interval
CCACAGCAAUAUUACGUUAC	low interval
AACAAGCAAUAUUACGGGUC	high interval
GUAAAGCAAUAUUACGGUGC	middle interval
CGAAAGCAAUAUUACGGGAA	middle interval
GUACAGCAAUAUUACGACUU	high interval
AUCCAGCAAUAUUACGUAAU	high interval
GAACAGCAAUAUUACGGGUG	high interval
GCCCAGCAAUAUUACGGCUC	high interval
AGUUAGCAAUAUUACGGCAU	high interval
UAGAAGCAAUAUUACGUUAA	low interval
UACGAGCAAUAUUACGAGAG	low interval
ACGAAGCAAUAUUACGGCAG	middle interval
CCUGAGCAAUAUUACGGUGU	low interval
CGAAAGCAAUAUUACGUCGU	low interval
UACAAGCAAUAUUACGCUAG	middle interval
GCCCAGCAAUAUUACGCGCA	high interval
CCCGAGCAAUAUUACGUUGC	low interval
UGGGAGCAAUAUUACGUUGC	low interval
AUCCAGCAAUAUUACGCUAU	high interval
AAGCAGCAAUAUUACGGUGG	low interval
AUCAAGCAAUAUUACGUUAC	low interval
CCAGAGCAAUAUUACGACUC	high interval
UCAAAGCAAUAUUACGGGUC	low interval
AGCGAGCAAUAUUACGGAAU	middle interval
CUUUAGCAAUAUUACGCUGU	middle interval
GUACAGCAAUAUUACGAAUA	low interval
GAACAGCAAUAUUACGGACU	high interval
UAAGAGCAAUAUUACGCAUG	middle interval
GGGGAGCAAUAUUACGUCCA	high interval
AGCGAGCAAUAUUACGGUGC	low interval

Origin of measurements: the supplement of paper PMC7877785
